Assay: NCI Yeast Anticancer Drug Screen. Data for the bub3 strain (AID 167)
Conditions: S. cerevisiae bub3 mutant strain, at 5.0 µM (retest, dose inferred, filed as 0.5), stronger effect = higher value
Compounds without any hit were thinned out: in the full panel of roughly 79,000, 15% have a hit.
TEST_READOUT: growth inhibition (%)
Just the number in %, nothing appended.

What growth inhibition value was documented for this molecule, Cc1cccc(N2CCN(CC(O)COc3ccc4ccccc4c3)CC2)c1 (centres undefined) ?
-5

Could you tell me which growth inhibition is on file for `N#C/C(=C1/C(=O)c2ccccc2-c2ccccc21)c1ccccc1` ?
99

Name the reported growth inhibition value associated with the molecule CCC(c1ccc(Cl)cc1)C(C#N)c1ccccc1 (centres undefined)
1

Entry CC(=O)OC(C)C1C2=C(C(=O)CC1(C)O)C(=O)c1c(ccc(-c3ccc4c(c3O)C(=O)C3=C(C4=O)C(C(C)OC(C)=O)C(C)(O)CC3=O)c1O)C2=O (centres undefined) : reported growth inhibition = ?
13

Data origin: PubChem BioAssay (NCI)
